target: CXCR4 (Homo sapiens); construct: Human T lymphoblast cells (CCRF-CEM) expressing endogenous CXCR4 receptors; endogenous in cells; host or cells: CCRF-CEM (human T lymphoblast cells); assay: CXCR4-CEM calcium flux assay, antagonist mode (inhibition of SDF-1α-induced calcium flux); type: cell-based; conditions: CCRF-CEM cells expressing endogenous CXCR4, stimulated with 4 nM SDF-1α, read-out: CXCR4 Ca^2+ Flux IC50
pIC50: −log10 of the molar value.
property measured: pIC50

1 = FC1(F)CCC(NC/C=C/CN(C[C@H]2Cc3ccccc3CN2)[C@H]2CCCc3cccnc32)CC1
2 = CN1Cc2cccc(N3CCNCC3)c2C[C@@H]1CN(C)[C@H]1CCCc2cccnc21
Lower pIC50: 1 or 2 ? # respond with the chosen item's label
1
(1: 7.09, 2: 7.50)

I = C/C(CN(C[C@H]1Cc2ccccc2CN1)[C@H]1CCCc2cccnc21)=C(\F)CN
II = CN(CC1CN(Cc2ccccn2)CCN1)[C@H]1CCCc2cccnc21 (single isomer, unassigned) [EMU023 (Stereoisomer 2)]
Lower pIC50: I or II ? # respond with the chosen item's label
II
(II: 6.00, I: 7.10)

1 = Cc1cccnc1CN(CCCN1CCNCC1)C[C@H]1Cc2ccccc2CN1
2 = C[C@@H]1CN(c2cccc3c2C[C@H](CN(C)[C@H]2CCCc4cccnc42)NC3)C[C@H](C)N1C
Lower pIC50: 1 or 2 ? # respond with the chosen item's label
1
(1: 7.04, 2: 7.85)

---

Target: CXCR4 (Homo sapiens, UniProt P61073)
Construct: Human T lymphoblast cells (CCRF-CEM) expressing endogenous CXCR4 receptors; endogenous in cells; host or cells: CCRF-CEM (human T lymphoblast cells)
Sequence (P61073 whole entry): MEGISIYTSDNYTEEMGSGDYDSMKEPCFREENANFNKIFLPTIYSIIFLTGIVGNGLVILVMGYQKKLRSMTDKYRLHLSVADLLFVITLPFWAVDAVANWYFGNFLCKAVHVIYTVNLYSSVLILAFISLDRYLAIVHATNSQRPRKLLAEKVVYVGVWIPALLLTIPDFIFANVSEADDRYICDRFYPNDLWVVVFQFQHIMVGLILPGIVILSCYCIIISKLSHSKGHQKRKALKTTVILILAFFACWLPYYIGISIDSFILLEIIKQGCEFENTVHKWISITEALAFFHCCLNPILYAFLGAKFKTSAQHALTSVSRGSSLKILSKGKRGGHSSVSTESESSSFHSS
Assay: CXCR4-CEM calcium flux assay, antagonist mode (inhibition of SDF-1α-induced calcium flux)
Format: cell-based
Conditions: CCRF-CEM cells expressing endogenous CXCR4, stimulated with 4 nM SDF-1α, read-out: CXCR4 Ca^2+ Flux IC50
Procedure: CXCR4-CEM Calcium Flux Assays Exemplary compounds of the invention were tested for their ability to induce or inhibit calcium flux in CCRF-CEM cells, a human cell line that endogenously expresses CXCR4. […] Calcium ion concentrations can be easily measured using a wide variety of […] calcium indicators and, as a result, calcium flux assays are commonly employed methods for measuring G protein-coupled receptor (GPCR) activity. […] After correcting for background, EC50 values were determined. […]
property measured: pIC50
pIC50 (log units): -log10 of the concentration in mol/L.

{"compound": "Cc1cnc2c(c1)CCC[C@@H]2N(C)C[C@H]1Cc2c(cccc2N2CCNCC2)CN1 [EMU230]", "pIC50": 7.79}
{"compound": "Cc1ccc(CN(C)C[C@H]2Cc3c(cccc3N3CCNCC3)CN2)nc1 [EMU130]", "pIC50": 6.29}

Please give the measured pIC50 for this compound: NC[C@H]1CC[C@H](CN(C[C@H]2Cc3ccccc3CN2)[C@H]2CCCc3cccnc32)CC1 [EMU121]
6.46
